Molecular target: T1, EDIII-DV1 (Dengue virus serotype 1 (DV1), UniProt P17763 581-673)
T1 construct: also called EDIII of DV1; EDIII-DVI
T1 sequence (P17763 581-673 limits assumed): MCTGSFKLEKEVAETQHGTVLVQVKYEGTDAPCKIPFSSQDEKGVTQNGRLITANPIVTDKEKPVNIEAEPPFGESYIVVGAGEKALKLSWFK
# strict inequality: Kd < 0.3 nM yields class 1, everything else yields class 0

binder	assigned-category
VH_G27_del (antibody, V domains shown) VH: VKLLEQSGAELVKPGASVRLSCTASFNIKDTYMSWVKQRPEQGLEWIGRIDPENGDTKYDPKFQGKATITADTSSNTAYLHLSSLTSGDTAVYYCSRGWEGFAYWGQGTLVTVSA VL: ELVMTQTPASLAVSLGQRATISCRASENVDKYGNSFMHWYQQKAGQPPKLLIYRASELQWGIPARFSGSGSRTDFTLTINPVEADDVATYFCQRSNEVPWTFGGGTKLEIKR	class 0
VH_G27A (antibody, V domains shown) VH: VKLLEQSGAELVKPGASVRLSCTASAFNIKDTYMSWVKQRPEQGLEWIGRIDPENGDTKYDPKFQGKATITADTSSNTAYLHLSSLTSGDTAVYYCSRGWEGFAYWGQGTLVTVSA VL: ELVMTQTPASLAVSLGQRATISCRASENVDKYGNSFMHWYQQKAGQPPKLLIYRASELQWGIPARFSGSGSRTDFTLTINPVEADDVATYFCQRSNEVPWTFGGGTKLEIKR	class 1
VH_G27P (antibody, V domains shown, also called 4E5-G27P; copies: 2 + 2) VH: VKLLEQSGAELVKPGASVRLSCTASPFNIKDTYMSWVKQRPEQGLEWIGRIDPENGDTKYDPKFQGKATITADTSSNTAYLHLSSLTSGDTAVYYCSRGWEGFAYWGQGTLVTVSA VL: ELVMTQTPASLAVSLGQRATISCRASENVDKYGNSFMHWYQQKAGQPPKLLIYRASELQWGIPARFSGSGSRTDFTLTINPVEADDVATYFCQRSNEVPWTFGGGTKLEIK	class 0
4E5A (antibody, V domains shown, also called 4E11-5A; E45A) VH: VKLLEQSGAELVKPGASVRLSCTASGFNIKDTYMSWVKQRPEQGLEWIGRIDPENGDTKYDPKFQGKATITADTSSNTAYLHLSSLTSGDTAVYYCSRGWEGFAYWGQGTLVTVSA VL: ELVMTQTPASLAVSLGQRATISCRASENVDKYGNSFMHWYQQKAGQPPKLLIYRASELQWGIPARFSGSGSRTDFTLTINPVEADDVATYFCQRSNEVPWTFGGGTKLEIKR	class 1
VH_S26_del (antibody, V domains shown) VH: VKLLEQSGAELVKPGASVRLSCTAGFNIKDTYMSWVKQRPEQGLEWIGRIDPENGDTKYDPKFQGKATITADTSSNTAYLHLSSLTSGDTAVYYCSRGWEGFAYWGQGTLVTVSA VL: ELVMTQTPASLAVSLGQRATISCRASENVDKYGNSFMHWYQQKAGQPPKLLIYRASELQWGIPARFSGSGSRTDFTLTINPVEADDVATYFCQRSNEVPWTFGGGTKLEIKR	class 1
VH_A25_del (antibody, V domains shown, also called 4E5-del-25; copies: 2 + 2) VH: VKLLEQSGAELVKPGASVRLSCTSGFNIKDTYMSWVKQRPEQGLEWIGRIDPENGDTKYDPKFQGKATITADTSSNTAYLHLSSLTSGDTAVYYCSRGWEGFAYWGQGTLVTVSA VL: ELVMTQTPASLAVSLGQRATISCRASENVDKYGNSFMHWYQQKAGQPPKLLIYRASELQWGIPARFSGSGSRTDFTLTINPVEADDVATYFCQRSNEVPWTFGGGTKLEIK	class 0
